- Tested on: NCI-H522
- assay_explanation: NCI tumour cell line growth inhibition, 48 h
Active and inactive are the calls of the source. Cut-off read from the data, not from the text of the source: active = GI50 up to about 1.1 µM and inactive = higher.
Outcomes: active, inactive

1. CC(=O)Nc1ccc(C(=O)N2N=C(C)/C(=C/c3cccc(O)c3)C2=O)cc1 = inactive
2. C=C1CC2CC[C@@]34C[C@H]5O[C@@H]6C(O[C@H]7CC[C@H](CC(=O)OC8[C@H](C)C9OC%10C[C@]%11(C[C@@H]%12O[C@]%13(C[C@H](C)[C@@H]%14O[C@H]([C@H](O)C[C@H](O)CO)C[C@@H]%14O%13)C[C@H](C)[C@@H]%12O%11)OC%10CC9O[C@H]8C[C@H]8O[C@H](CC[C@@H]1O2)C[C@@H](C)C8=C)O[C@H]7[C@@H]6O3)[C@@H]5O4 (some centres undefined) = active
3. O=C1CC2(CCNCC2)C(=O)N1N1CCOCC1 = inactive
4. C/C(=N/NC(=S)Nc1ccccc1Cl)c1ccccn1 = active
5. O=P(O)(O)c1ccccc1Oc1ccccc1 = inactive
6. CCN(CC)C1Oc2cc3c(cc2C(c2ccc(OC)cc2)C1C)OCO3 (centres undefined) = inactive
7. CC1CNC(c2cccc(OCc3ccc(COc4cccc(C5=NC(C)CN5)c4)cc3)c2)=N1 (centres undefined) = inactive
8. CC1(c2ccc(F)cc2)C(C#N)C(=O)NC(=O)C1C#N (centres undefined) = inactive
9. CC(=O)O[C@H]1C(=O)[C@@]2(C)[C@H]([C@H](OC(=O)c3ccccc3)[C@]3(O)C[C@H](OC(=O)[C@H](O)[C@@H](NC(=O)c4cccc(N=[N+]=[N-])c4)c4ccccc4)C(C)=C1C3(C)C)[C@]1(OC(C)=O)CO[C@@H]1C[C@@H]2O = active
10. CC(=O)OC1COC(N2C(=O)/C(=N\Nc3ccc([N+](=O)[O-])cc3)c3cc(Br)c([N+](=O)[O-])cc32)C(OC(C)=O)C1OC(C)=O (centres undefined) = inactive
11. Cc1ccc(/C=N/n2c(Cc3ccccc3)n[nH]c2=O)cc1 = inactive
12. c1ccc(C2=C(c3ccccc3)Sc3nnc(CCCCCCCCc4nnc5n4NC(c4ccccc4)=C(c4ccccc4)S5)n3N2)cc1 = inactive
13. Cc1cc(Cl)ccc1Nc1sc(C(=O)c2cc3cc(Cl)ccc3o2)c(N)c1C#N = inactive
14. COC(=O)C1=C(C)NC(=S)NC1c1ccc(N(CCCl)CCCl)cc1Cl (centres undefined) = inactive
15. COc1cc(/C=C2\C[C@H]3[C@@H]4CCc5cc(O)ccc5[C@H]4CC[C@]3(C)C2=O)cc(OC)c1OC = inactive
16. Cc1cccc(NC(=O)C(=O)C(C(=O)c2ccccc2F)C2OC(=O)c3ccccc32)c1Cl (centres undefined) = inactive
17. N#Cc1nc(C#N)n(S(=O)(=O)c2ccccc2)c1NS(=O)(=O)c1ccccc1 = inactive
18. NNC(=O)c1ccccc1Nc1nc(-c2cccs2)nc2ccc(Br)cc12 = inactive
19. O=S(=O)(O)c1ccc2c(/N=N/c3ccccc3Cl)c(O)ccc2c1 = inactive
20. CN(CCN(C)C(=S)NN)C(=S)NN = inactive
21. CCOP(=O)(OCC)C(c1ccccc1)N(C(=O)NC(F)(F)F)c1cccc(F)c1 (centres undefined) = inactive
22. COc1ccc(NC(=O)c2cc(OC)c(OC)c(OC)c2)cc1 = inactive
23. O=S(=O)(/N=c1\[nH]c(-c2cc(O)c(O)c(O)c2)cs1)c1ccc(Cl)cc1Cl = inactive
24. COC(=O)C(/C(=N\O)C(=O)Nc1ccc(Br)cc1)c1nc2ccccc2nc1O (centres undefined) = inactive
25. CC(/C=C/c1ccccc1)=N\N=C(C)\C=C\c1ccccc1 = inactive
26. CC(C)(C)CNCCCNc1ccc(Cl)cc1 = inactive
27. C=CCOc1ccc(C2c3c(n[nH]c3O)CC(C)(O)C2C(=O)OC)cc1OC (centres undefined) = inactive
28. N#Cc1c2c(c(Nc3ccc(F)cc3)n3c1nc1ccccc13)CCCC2 = inactive
29. O=c1oc2ccc([N+](=O)[O-])cc2cc1-c1csc(-c2ccccc2)n1 = inactive
